Reference for the values: paper PMC12030165

- TESTED_ON: COX-1 (Homo sapiens)
- Sequence (P23219 24-599): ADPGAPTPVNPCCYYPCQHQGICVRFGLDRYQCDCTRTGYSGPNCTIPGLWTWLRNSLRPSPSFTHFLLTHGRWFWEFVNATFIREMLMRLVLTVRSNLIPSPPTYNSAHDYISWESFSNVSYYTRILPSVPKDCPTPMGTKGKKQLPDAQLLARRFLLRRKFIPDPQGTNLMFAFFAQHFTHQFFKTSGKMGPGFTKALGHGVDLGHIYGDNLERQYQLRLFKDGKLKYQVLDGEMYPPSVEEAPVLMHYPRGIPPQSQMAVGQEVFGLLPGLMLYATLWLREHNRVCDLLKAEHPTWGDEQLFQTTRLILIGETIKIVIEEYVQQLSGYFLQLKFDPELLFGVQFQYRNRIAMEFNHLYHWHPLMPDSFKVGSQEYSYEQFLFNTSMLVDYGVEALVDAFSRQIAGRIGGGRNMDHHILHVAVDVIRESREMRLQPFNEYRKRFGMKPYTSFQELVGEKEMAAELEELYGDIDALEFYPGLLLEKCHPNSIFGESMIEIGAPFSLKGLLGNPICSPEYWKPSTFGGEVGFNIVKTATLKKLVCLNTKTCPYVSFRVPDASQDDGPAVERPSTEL
QUANTITY_MEASURED: IC50 (nM)
# value in nM; strip the unit string

**Query** // returns reported IC50 for input OC1(c2ccccc2)c2ccccc2Sc2ccc(C(F)(F)F)cc21 (stereo not shown)
**Result** 40.2

----------
- TESTED_ON: porcine pancreatic α-amylase (Sus scrofa, UniProt P00690)
- Construct: purchased MP Biochemicals (Illkirch, France)
- Sequence (P00690 16-511): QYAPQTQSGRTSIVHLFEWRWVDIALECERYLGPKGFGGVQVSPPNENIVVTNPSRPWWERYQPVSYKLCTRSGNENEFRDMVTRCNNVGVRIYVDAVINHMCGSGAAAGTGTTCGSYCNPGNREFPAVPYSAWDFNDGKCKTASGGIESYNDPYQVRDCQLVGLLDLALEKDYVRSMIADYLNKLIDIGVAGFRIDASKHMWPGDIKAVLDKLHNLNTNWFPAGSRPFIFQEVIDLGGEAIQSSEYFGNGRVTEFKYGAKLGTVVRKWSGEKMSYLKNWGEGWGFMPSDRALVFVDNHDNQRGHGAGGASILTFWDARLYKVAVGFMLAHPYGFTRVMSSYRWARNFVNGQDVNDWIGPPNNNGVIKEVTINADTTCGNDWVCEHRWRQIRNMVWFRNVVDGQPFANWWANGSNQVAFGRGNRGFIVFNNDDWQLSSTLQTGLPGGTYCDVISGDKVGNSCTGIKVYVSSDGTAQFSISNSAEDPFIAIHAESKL
- METHOD_DESCRIPTION: α-Amylase inhibition assay (DNSA)
- Format: biochemical
QUANTITY_MEASURED: pIC50
Lab note — pIC50 values are minus log10 of concentrations in M.

**Query** // returns reported pIC50 for input OC1(Cc2ccccc2)c2ccccc2Sc2ccc(C(F)(F)F)cc21 (stereo not shown)
**Result** 4.22
